Assignment: determine reported IC50 for the given compounds.
target: PRC2/EZH1 (Homo sapiens); construct: N-terminal 6His-tagged full length EZH2^Y641N, EZH2^Y111L, EZH2^Y111D, EZH2^Y641N, Y661DEZH2, EZH1; 6His (N); made in house; host or cells: Sf9 insect cells (baculovirus co-infection); assay: Scintillation proximity assay (SPA) of H3K27 methylation; format: biochemical; settings: 0' enzyme:inhibitor pre-incubation; read-out: SPA Mean IC50 (M) - 0' enzyme:inhibitor pre-incubation EZH1

Need IC50 for each of these compounds.
1. CC[C@H](C)n1cc(C)c2c(C(=O)NCc3c(C)cc(C)[nH]c3=O)cc(-c3ccc(N4CCNCC4)nc3)cc21
2. Cc1cc(C)c(CN2CCc3c(Cl)cc(-c4c(C)noc4C)c(Cl)c3C2=O)c(=O)[nH]1

Reply:
1.1e-06 M
3.1e-07 M

* * *

test system: H3K27me3 mark in MDA-MB-231 cells; experiment: High content analysis (HCA) of cellular H3K27me3 mark, washout format; assay type: cell-based; conditions: H3K27 methylation HCA; incubation time 4 h, washout time 68 h; read-out: Mean IC50
Endpoint Label: IC50 (µM)
Numbers only, in µM.

Query: Using the record for CC[C@H](C)n1cc(C)c2c(C(=O)NCc3c(C)cc(C)[nH]c3=O)cc(-c3ccc(N4CCNCC4)nc3)cc21 [Compound 4, GSK126] , report its IC50.
Reply: 1.8

* * *

Assignment: determine reported Ki for the given molecules.
biological target: PRC2/EZH2Y641N (Homo sapiens, UniProt Q15910, Y641N); construct: Synthetic cDNA encoding N-terminal 6His-tagged full length EZH2^Y641N; 6His (N); made in house; host or cells: Sf9 insect cells (baculovirus co-infection); test: Equilibrium probe competition assay (ePCA), TR-FRET; assay type: binding; conditions: EZH2Y641N (+ H3K27me3), equilibrium, RT sheet
One number for each entry, in nM.

Cc1cc(C)c(CN2CCc3c(Cl)cc(-c4c(C)noc4C)c(Cl)c3C2=O)c(=O)[nH]1 [Compound 14]
1.35

Please find the next molecule below.
Query: Under PRC2/EZH2Y641N (Homo sapiens, UniProt Q15910, Y641N): Ki value of CCCc1cc(C)[nH]c(=O)c1CNC(=O)c1cc(-c2ccc(N3CCN(C(C)C)CC3)nc2)cc2c1cnn2C(C)C [Compound 9, UNC1999] ?
Reply: 6.65

* * *

Assignment: determine reported Ki for the given compounds.
target: PRC2/EZH2+/+ (Homo sapiens); construct: purchased Active Motif; assay: Equilibrium probe competition assay (ePCA), TR-FRET; format: binding; conditions: EZH2+/+ (- H3K27me3), 5 °C; read-out: Ki (Equilibrium)
Answers are plain numbers, in nM.

Cc1cc(C)c(CN2CCc3c(Cl)cc(-c4c(C)noc4C)c(Cl)c3C2=O)c(=O)[nH]1
1.1

Please find the next compound below.
Query: Using the record for CCCc1cc(C)[nH]c(=O)c1CNC(=O)c1cc(-c2ccc(N3CCN(C(C)C)CC3)nc2)cc2c1cnn2C(C)C , report its Ki.
Reply: 1.92

* * *

target: PRC2/EZH2+/+ (Homo sapiens, UniProt Q15910); construct: purchased Active Motif; experiment: Scintillation proximity assay (SPA) of H3K27 methylation; format: biochemical; settings: 60' enzyme:inhibitor pre-incubation; read-out: SPA Mean IC50 (M) - 60' enzyme:inhibitor pre-incubation EZH2+/+
Assignment: determine reported IC50 for the given compounds.
Answers are plain numbers, in M.

Need IC50 for each of these compounds.
1. Cc1cc(C)c(CN2CCc3c(Cl)cc(-c4c(C)noc4C)c(Cl)c3C2=O)c(=O)[nH]1
2. CCCc1cc(C)[nH]c(=O)c1CNC(=O)c1cc(-c2ccc(N3CCN(C(C)C)CC3)nc2)cc2c1cnn2C(C)C

Reply:
1.8e-09
3.1e-09

* * *

biological target: PRC2/EZH2+/+ (Homo sapiens, UniProt Q15910); construct: purchased Active Motif; experiment: Kinetic probe competition assay (kPCA), TR-FRET; format: binding; conditions: EZH2+/+ (- H3K27me3), 15 °C; read-out: Kd (Kinetic)
Endpoint Label: Kd (nM)
Answers are plain numbers, in nM.

Query: Using the record for Cc1cc(C)c(CN2CCc3c(Cl)cc(-c4c(C)noc4C)c(Cl)c3C2=O)c(=O)[nH]1 [Compound 14] , report its Kd.
Reply: 0.378

* * *

tested on: H3K27me3 mark in MDA-MB-231 cells; experiment: High content analysis (HCA) of cellular H3K27me3 mark, washout format; type: cell-based; settings: Homo sapiens, MDA-MB-231, H3K27 methylation HCA; incubation time 48 h, washout time 24 h; read-out: Mean IC50
Endpoint Label: IC50 (µM)
Numbers only, in µM.

Query: Using the record for CCS(=O)(=O)N1CCC([C@@H](C)n2c(C)c(C(=O)NCc3c(OC)cc(C)[nH]c3=O)c3ccccc32)CC1 , report its IC50.
Reply: 3.1

* * *

target: PRC2/EZH2+/+ (Homo sapiens, UniProt Q15910); construct: purchased Active Motif; experiment: Equilibrium probe competition assay (ePCA), TR-FRET; format: binding; conditions: EZH2+/+ (- H3K27me3), 37 °C; read-out: Ki (Equilibrium)
Endpoint Label: pKi
One number for each entry, as −log10 of the molar value.

CCCc1cc(C)[nH]c(=O)c1CNC(=O)c1cc(-c2ccc(N3CCN(C(C)C)CC3)nc2)cc2c1cnn2C(C)C
8.02

Please find the next compound below.
Query: Using the record for Cc1cc(C)c(CN2CCc3c(Cl)cc(-c4c(C)noc4C)c(Cl)c3C2=O)c(=O)[nH]1 , report its pKi.
Reply: 8.64

* * *

system: H3K27me3 mark in MDA-MB-231 cells; assay: High content analysis (HCA) of cellular H3K27me3 mark, washout format; assay type: cell-based; settings: H3K27 methylation HCA; incubation time 2 h, washout time 70 h; read-out: Mean IC50
Endpoint Label: IC50

Query: Using the record for CC[C@H](C)n1cc(C)c2c(C(=O)NCc3c(C)cc(C)[nH]c3=O)cc(-c3ccc(N4CCNCC4)nc3)cc21 [Compound 4, GSK126] , report its IC50.
Reply: 2400 nM

* * *

system: H3K27me3 mark in MDA-MB-231 cells; assay: High content analysis (HCA) of cellular H3K27me3 mark, washout format; type: cell-based; details: H3K27 methylation HCA; incubation time 0.5 h, washout time 71.5 h; read-out: Mean IC50
Endpoint Label: pIC50
Numbers only, as −log10 of the molar value.

Query: Using the record for CC[C@H](C)n1cc(C)c2c(C(=O)NCc3c(C)cc(C)[nH]c3=O)cc(-c3ccc(N4CCNCC4)nc3)cc21 , report its pIC50.
Reply: 5.24

* * *

target: PRC2/EZH2+/+ (Homo sapiens); construct: purchased Active Motif; test: Kinetic probe competition assay (kPCA), TR-FRET; assay type: binding; details: EZH2+/+ (+ H3K27me3); sheet ePCA&kPCA RT; read-out: Kinetic Kd
Endpoint Label: pKd
Numbers only, as −log10 of the molar value.

Cc1cc(C)c(CN2CCc3c(Cl)cc(-c4c(C)noc4C)c(Cl)c3C2=O)c(=O)[nH]1 [Compound 14]
9.52

Please find the next compound below.
Query: Using the record for CCCc1cc(C)[nH]c(=O)c1CNC(=O)c1cc(-c2ccc(N3CCN(C(C)C)CC3)nc2)cc2c1cnn2C(C)C [Compound 9, UNC1999] , report its pKd.
Reply: 9.27

* * *

target: PRC2/EZH2+/+ (Homo sapiens, UniProt Q15910); construct: purchased Active Motif; experiment: Kinetic probe competition assay (kPCA), TR-FRET; type: binding; conditions: EZH2+/+ (- H3K27me3); sheet ePCA&kPCA RT; read-out: Kinetic Kd
Endpoint Label: Kd

CCCc1cc(C)[nH]c(=O)c1CNC(=O)c1cc(-c2ccc(N3CCN(C(C)C)CC3)nc2)cc2c1cnn2C(C)C
2.39 nM

Please find the next molecule below.
Query: Using the record for Cc1cc(C)c(CN2CCc3c(Cl)cc(-c4c(C)noc4C)c(Cl)c3C2=O)c(=O)[nH]1 , report its Kd.
Reply: 2.27 nM

* * *

Target: PRC2/EZH2Y641N (Homo sapiens, UniProt Q15910, Y641N)
Construct: Synthetic cDNA encoding N-terminal 6His-tagged full length EZH2^Y641N; 6His (N); made in house; host or cells: Sf9 insect cells (baculovirus co-infection)
Test: Scintillation proximity assay (SPA) of H3K27 methylation
Assay type: biochemical
Settings: 60' enzyme:inhibitor pre-incubation; read-out: SPA Mean IC50 (M) - 60' enzyme:inhibitor pre-incubation EZH2Y641N
Procedure: Assay-ready plates containing 50 nl of compound dilutions and DMSO controls were filled with 2.5 µL enzyme solution and pre-incubated for 15 min. […] Experiments were also performed without pre-incubation of enzyme and compounds. In this case, the substrate solution was added before enzyme. The reaction was stopped using 1.6 µg/µl streptavidin beads (Perkin Elmer) and 700 µM of SAM (Perkin Elmer). The plates were sealed with transparent foil. […]
Assignment: determine reported IC50 for the given compounds.
Please append the unit to your numeric answer.

Need IC50 for each of these compounds.
1. CCCc1cc(C)[nH]c(=O)c1CNC(=O)c1cc(-c2ccc(N3CCN(C(C)C)CC3)nc2)cc2c1cnn2C(C)C
2. Cc1cc(C)c(CN2CCc3c(Cl)cc(-c4c(C)noc4C)c(Cl)c3C2=O)c(=O)[nH]1

Reply:
1. 3.2e-08 M
2. 1.2e-08 M
